Each entry below carries its reported kinase still bound, per cent of control.
# target: EPHA5 (human)
# testDescription: KINOMEscan competition binding
# reportedConditions: compound 1.0 µM
readoutName: kinase still bound, per cent of control (%)

CN(C)C/C=C/C(=O)Nc1cccc(C(=O)Nc2ccc(Nc3nccc(-c4cccnc4)n3)cc2)c1 : 96
CN(C)C/C=C/C(=O)Nc1cccc(C(=O)Nc2ccc(Nc3nccc(-c4c(-c5ccccc5)nn5ccccc45)n3)cc2)c1 : 98
CN(C)C/C=C/C(=O)Nc1cccc(C(=O)Nc2ccc(Nc3nccc(/C(C#N)=C4\Nc5ccccc5S4)n3)cc2)c1 : 100
Cc1cc(NC(=O)c2cccc(NC(=O)/C=C/CN(C)C)c2)ccc1Nc1nccc(-c2cccnc2)n1 : 100
